system.name: T1, recombinant human Factor VIIa (human, UniProt P08709 61-212; P08709 213-466)
T1 chain 1: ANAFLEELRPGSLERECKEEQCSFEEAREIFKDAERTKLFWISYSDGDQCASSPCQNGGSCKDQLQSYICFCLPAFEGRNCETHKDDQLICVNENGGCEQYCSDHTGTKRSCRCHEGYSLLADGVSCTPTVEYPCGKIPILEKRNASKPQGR
T1 chain 2: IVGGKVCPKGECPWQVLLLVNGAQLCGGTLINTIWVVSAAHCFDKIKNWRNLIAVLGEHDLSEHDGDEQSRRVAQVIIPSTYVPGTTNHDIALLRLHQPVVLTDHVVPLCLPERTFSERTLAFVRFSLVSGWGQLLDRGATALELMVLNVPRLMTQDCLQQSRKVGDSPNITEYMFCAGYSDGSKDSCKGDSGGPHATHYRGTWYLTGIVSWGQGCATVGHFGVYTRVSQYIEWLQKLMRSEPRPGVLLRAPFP
assay.summary: competition ELISA
Positions of bridges follow the written chain, without caps; N, C: chain ends.
measured.property: IC50 (nM)
A number alone suffices; assume nM.

Quick one: IC50 for Ac-ALCDDPRVDRWYCQFVEG-NH2 (disulfide 3-13 (inferred)) [peptide TF76 (Ac-ALCDDPRVDRWYCQFVEG-NH2)] ? 21
